system: Ba/F3 EGFR Del19/T790M mutants (Homo sapiens, UniProt P00533, T790M, cells depend on it, form not given)
Sequence (P00533 with tags, fused parts or gaps DEL746-750/T790M, form open): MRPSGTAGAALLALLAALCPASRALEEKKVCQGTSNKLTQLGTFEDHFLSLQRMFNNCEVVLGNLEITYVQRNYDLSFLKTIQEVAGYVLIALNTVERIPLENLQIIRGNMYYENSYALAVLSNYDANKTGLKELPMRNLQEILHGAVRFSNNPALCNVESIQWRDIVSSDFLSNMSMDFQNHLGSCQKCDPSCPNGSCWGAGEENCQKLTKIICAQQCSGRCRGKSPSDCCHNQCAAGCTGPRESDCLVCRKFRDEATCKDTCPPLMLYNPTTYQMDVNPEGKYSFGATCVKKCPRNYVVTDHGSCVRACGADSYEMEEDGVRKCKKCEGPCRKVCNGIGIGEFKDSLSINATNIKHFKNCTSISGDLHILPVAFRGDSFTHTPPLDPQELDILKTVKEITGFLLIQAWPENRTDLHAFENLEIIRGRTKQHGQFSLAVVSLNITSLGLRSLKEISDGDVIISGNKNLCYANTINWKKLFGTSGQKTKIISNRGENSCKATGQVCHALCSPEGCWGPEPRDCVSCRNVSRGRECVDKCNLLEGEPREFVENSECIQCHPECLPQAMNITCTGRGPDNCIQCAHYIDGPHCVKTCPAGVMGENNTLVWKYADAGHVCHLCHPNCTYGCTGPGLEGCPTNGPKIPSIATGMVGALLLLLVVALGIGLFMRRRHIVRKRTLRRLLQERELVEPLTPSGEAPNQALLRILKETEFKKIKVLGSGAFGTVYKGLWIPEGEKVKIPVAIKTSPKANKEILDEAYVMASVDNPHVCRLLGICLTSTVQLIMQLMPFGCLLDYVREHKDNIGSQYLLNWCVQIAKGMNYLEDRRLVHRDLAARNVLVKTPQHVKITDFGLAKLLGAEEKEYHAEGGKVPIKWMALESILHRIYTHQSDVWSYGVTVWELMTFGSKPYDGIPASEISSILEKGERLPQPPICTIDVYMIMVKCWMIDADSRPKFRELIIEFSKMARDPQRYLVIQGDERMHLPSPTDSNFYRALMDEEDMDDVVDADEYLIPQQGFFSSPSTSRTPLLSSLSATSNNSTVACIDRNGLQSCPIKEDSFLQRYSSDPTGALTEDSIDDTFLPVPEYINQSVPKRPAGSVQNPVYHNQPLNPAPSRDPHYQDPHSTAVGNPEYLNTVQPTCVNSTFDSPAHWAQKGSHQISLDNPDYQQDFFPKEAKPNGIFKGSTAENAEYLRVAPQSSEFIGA
assayMethodText: CellTiter-Glo cell viability, Ba/F3 EGFR Del19/T790M cells
Assay type: cell-based, murine
conditionDetails: 72 hours, read-out: Ba/F3 EGFR mutant cell (IC50, nM) D/T
quantityKind: GI50 (nM)
Provide the reading as a plain figure in nM.

I am curious: what GI50 value has been reported for "CCc1cc(Nc2ncc(Cl)c(Nc3ccc4nccnc4c3N(C)S(C)(=O)=O)n2)c(OC)cc1N1CCC(N2CCN(C)CC2)CC1" ?
5

Now consider CCc1cc(Nc2ncc(Br)c(Nc3cccc(OC)c3N(C)S(C)(=O)=O)n2)c(OC)cc1N1CCC(N2CCN(C)CC2)CC1 [Example C29] and answer again.
7

Now consider CCc1cc(Nc2ncc(Br)c(Nc3ccc4nccnc4c3N(C)S(C)(=O)=O)n2)c(OC)cc1N1CC2CCC1CN2C(C)C (stereo not shown) and answer again.
7

Now consider CCc1cc(Nc2ncc(Cl)c(Nc3ccc4nccnc4c3NS(C)(=O)=O)n2)c(OC)cc1N1CCC(N2CC3CCC2CN3C)CC1 (stereo not shown) and answer again.
9

Now consider "CCc1cc(Nc2ncc(Br)c(Nc3ccc4nccnc4c3N(C)S(C)(=O)=O)n2)c(OC)cc1N1CCN(C2CCN(C)CC2)CC1" and answer again.
4

Now consider "CCc1cc(Nc2ncc(Cl)c(Nc3ccc(OC)c(OC)c3N(C)S(C)(=O)=O)n2)c(OC)cc1N1CCC(N2CCOCC2)CC1" and answer again.
176

Now consider "COc1cc(N2CCC(N3CCCC3)CC2)c(C)cc1Nc1ncc(Cl)c(Nc2ccc3nccnc3c2NS(C)(=O)=O)n1" and answer again.
31

Now consider "COc1cc(N2CCC(N3CCN(C)CC3)CC2)ccc1Nc1ncc(Cl)c(Nc2ccc3scnc3c2NS(C)(=O)=O)n1" and answer again.
94

Now consider "CCCc1cc(Nc2ncc(Cl)c(Nc3ccc4nccnc4c3NS(C)(=O)=O)n2)c(OC)cc1N1CCC(N(C)C)CC1" and answer again.
19

Now consider "COc1cc(N2CCC(N3CCN(CC(F)F)CC3)CC2)ccc1Nc1ncc(Cl)c(Nc2ccc3nccnc3c2NS(C)(=O)=O)n1" and answer again.
174

Now consider "COc1cc(N2CCC(N(C)C)CC2)c(C)cc1Nc1ncc(Br)c(Nc2ccc3nccnc3c2NS(C)(=O)=O)n1" and answer again.
8

Now consider "CCc1cc(Nc2ncc(Br)c(Nc3ccc4nccnc4c3N(C)S(C)(=O)=O)n2)c(OC)cc1N1CC2(CCN2C(C)C)C1" and answer again.
8

Now consider "COc1cc(N2CCC(N3CCN(C)CC3)CC2)c(C)cc1Nc1ncc(Br)c(Nc2ccc3nccnc3c2NS(=O)(=O)C2CC2)n1" and answer again.
6

---

system: Ba/F3 EGFR Wild-type (Homo sapiens)
Sequence (P00533 whole entry, change not shown): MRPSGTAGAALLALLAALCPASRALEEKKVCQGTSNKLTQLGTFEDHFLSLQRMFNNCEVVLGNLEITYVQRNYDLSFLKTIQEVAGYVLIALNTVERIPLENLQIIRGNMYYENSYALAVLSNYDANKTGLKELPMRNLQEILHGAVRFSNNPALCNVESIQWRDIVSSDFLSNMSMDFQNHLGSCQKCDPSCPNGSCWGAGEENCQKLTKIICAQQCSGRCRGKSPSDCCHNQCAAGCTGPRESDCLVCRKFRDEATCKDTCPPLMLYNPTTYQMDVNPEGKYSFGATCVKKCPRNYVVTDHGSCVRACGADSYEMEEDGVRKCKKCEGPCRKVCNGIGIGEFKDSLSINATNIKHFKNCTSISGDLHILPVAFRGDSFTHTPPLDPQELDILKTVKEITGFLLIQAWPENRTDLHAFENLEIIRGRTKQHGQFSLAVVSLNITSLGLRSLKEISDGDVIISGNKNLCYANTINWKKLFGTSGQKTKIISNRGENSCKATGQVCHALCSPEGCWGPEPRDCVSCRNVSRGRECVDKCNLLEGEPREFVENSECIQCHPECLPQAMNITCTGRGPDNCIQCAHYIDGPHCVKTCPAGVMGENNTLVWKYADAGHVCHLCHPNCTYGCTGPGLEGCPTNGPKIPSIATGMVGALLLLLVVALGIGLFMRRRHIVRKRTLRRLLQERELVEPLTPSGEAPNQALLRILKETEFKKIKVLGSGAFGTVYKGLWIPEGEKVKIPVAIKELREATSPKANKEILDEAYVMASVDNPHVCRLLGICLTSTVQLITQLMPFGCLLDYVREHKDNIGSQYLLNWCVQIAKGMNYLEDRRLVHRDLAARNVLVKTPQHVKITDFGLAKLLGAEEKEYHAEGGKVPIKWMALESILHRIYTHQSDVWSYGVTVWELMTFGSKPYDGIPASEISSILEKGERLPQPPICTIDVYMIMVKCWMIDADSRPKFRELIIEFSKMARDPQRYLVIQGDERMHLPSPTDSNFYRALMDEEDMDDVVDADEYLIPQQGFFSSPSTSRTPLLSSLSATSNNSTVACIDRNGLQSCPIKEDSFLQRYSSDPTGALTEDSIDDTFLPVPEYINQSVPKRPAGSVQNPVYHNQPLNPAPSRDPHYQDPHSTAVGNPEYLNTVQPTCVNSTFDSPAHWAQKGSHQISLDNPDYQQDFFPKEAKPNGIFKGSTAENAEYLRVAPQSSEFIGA
assayMethodText: CellTiter-Glo cell viability, Ba/F3 EGFR wild-type cells
Format: cell-based, murine
conditionDetails: 72 hours, read-out: Ba/F3 EGFR mutant cell (IC50, nM) WT
Experimental: In order to evaluate an inhibitory ability on wild-type Ba/F3 EGFR and Ba/F3 EGFR mutations in Ba/F3 cell lines by the compounds of Formula 1, the experiment was carried out as described below. The measurement of activities on Ba/F3 cells harboring wild-type EGFR and EGFR mutants by the compounds of the present invention were determined utilizing the CELLTITER-GLO™ system from Promega, as follows. […]
Consider the following molecules; for each one, report its GI50.
Provide the reading as a plain figure in nM.

I am curious: what GI50 value has been reported for CCc1cc(Nc2ncc(Br)c(Nc3ccc4c(c3N(C)S(C)(=O)=O)OCCO4)n2)c(OC)cc1N1CCC(N2CCN(C)CC2)CC1 [Example C28] ?
699

Now consider CCc1cc(Nc2ncc(Cl)c(Nc3ccc4c(c3NS(C)(=O)=O)OCCO4)n2)c(OC)cc1N1CCC(N2CCOCC2)CC1 [Example C15] and answer again.
638

Now consider CCCc1cc(Nc2ncc(Br)c(Nc3ccc4nccnc4c3NS(C)(=O)=O)n2)c(OC)cc1N1CCC(N(C)C)CC1 [Example B13] and answer again.
468
